Biological target: T1, human collagen type I, acid soluble, extracted from placenta (Sigma C7774) (human, UniProt P02452 162-1218; P08123 80-1119)
T1 construct: tissue extract, gelled and dried in wells; also called dried human collagen; h-Collagen
T1 sequence (P02452 162-1218 limits assumed, chain 1 of 2): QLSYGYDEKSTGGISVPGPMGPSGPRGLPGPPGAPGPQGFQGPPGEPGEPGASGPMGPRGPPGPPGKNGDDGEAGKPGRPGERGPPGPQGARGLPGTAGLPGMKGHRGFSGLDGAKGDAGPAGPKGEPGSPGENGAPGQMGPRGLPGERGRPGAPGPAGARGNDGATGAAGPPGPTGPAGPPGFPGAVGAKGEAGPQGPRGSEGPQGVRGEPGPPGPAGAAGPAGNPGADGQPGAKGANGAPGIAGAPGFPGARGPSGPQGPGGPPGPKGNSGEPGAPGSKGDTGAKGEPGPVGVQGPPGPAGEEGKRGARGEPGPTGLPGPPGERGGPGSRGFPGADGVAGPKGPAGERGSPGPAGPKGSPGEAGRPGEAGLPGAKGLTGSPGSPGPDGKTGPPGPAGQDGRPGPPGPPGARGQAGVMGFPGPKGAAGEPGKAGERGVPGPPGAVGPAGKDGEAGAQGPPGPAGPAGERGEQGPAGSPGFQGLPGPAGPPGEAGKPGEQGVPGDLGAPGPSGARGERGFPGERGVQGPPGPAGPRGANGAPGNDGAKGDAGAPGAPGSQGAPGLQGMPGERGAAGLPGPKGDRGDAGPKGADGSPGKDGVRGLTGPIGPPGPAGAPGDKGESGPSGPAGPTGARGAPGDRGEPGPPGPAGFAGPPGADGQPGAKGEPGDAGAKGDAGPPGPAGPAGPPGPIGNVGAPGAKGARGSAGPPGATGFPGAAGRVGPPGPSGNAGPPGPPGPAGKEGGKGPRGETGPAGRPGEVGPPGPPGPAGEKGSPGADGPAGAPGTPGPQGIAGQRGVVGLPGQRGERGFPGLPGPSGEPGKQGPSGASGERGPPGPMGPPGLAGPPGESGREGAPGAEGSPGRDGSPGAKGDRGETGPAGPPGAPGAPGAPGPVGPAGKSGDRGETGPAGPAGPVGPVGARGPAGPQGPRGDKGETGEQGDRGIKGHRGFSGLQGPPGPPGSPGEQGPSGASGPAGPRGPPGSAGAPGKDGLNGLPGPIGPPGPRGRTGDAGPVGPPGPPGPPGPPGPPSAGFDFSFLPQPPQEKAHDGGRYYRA
T1 sequence (P08123 80-1119 limits assumed, chain 2 of 2): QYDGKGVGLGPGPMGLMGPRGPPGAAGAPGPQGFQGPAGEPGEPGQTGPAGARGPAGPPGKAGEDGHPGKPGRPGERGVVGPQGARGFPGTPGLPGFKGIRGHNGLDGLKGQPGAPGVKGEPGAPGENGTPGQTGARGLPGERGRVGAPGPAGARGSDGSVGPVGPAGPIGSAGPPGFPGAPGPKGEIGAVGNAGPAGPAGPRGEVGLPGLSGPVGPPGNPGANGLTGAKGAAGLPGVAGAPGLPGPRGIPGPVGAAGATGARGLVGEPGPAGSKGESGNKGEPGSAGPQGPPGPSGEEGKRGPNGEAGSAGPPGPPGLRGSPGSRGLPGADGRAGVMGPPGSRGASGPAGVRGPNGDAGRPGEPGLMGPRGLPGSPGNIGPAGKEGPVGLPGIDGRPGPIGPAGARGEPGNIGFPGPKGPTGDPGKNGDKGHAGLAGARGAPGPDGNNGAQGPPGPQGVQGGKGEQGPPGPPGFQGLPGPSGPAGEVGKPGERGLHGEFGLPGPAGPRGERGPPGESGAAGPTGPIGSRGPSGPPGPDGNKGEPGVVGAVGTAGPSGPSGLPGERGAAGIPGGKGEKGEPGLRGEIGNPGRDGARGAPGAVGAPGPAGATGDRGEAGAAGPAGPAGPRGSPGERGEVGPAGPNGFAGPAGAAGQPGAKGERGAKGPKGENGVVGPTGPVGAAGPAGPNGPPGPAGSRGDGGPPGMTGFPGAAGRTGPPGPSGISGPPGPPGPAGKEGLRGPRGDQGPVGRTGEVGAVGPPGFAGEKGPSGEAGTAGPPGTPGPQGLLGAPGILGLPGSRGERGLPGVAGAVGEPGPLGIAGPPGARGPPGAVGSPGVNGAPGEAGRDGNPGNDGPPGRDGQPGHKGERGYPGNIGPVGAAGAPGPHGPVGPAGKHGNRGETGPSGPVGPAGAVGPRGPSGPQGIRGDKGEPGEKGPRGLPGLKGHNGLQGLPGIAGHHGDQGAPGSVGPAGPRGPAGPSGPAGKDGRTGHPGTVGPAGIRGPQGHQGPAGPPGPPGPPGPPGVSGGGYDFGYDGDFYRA
Assay: % binding to collagen I
Bridge positions count the residues as written; N and C are the ends. Square brackets hold non-standard residues; d marks the D form. Primed or numbered codes have the meaning given here. Ends that are not written are not given here. Glu‑DTPA‑Gd = N-terminal Glu-DTPA-Gd chelate (gadolinium DTPA complex on glutamic acid); Glu‑DTPA‑Gd″ = N-terminal chelate: Glu-DTPA-Gd (glutamic acid–DTPA gadolinium chelate); Glu‑DTPA‑Gd(3) = N-terminal gadolinium chelate Glu-DTPA-Gd; PEG(2O) = not defined here
Attribute: % bound
Number first, unit second: that is the form wanted.

- BINDER: "{Glu‑DTPA‑Gd}-GQWTCSGDEYTWHCNYE (disulfide 5-14 (inferred); not fully specified (C-terminus), N-terminal G linker) [Compound ID 1021]"
  % bound: "48%"
- BINDER: "{Glu‑DTPA‑Gd″-PEG(2O)}-GQWTCSGDEYTWHCNY[dE]-NH2 (disulfide 5-14 (inferred); reading uncertain, linker -PEG(2O)-G- on the N-terminus) [Compound ID 1026]"
  % bound: "28%"
- BINDER: "WWGCRQGTGEHWSHCMWF (disulfide 4-15 (inferred); not fully specified (N-terminus, C-terminus); also: Gd chelated by DTPA at both ends) [SEQ ID NO 195]"
  % bound: "16%"
- BINDER: "{Glu‑DTPA‑Gd}-WWTCHMTWSGQWDSCKWH-NH2 (disulfide 4-15 (inferred)) [Compound ID 1020]"
  % bound: "60%"
- BINDER: "WWTCHMTWSGQWDSCKWH-NH2 (disulfide 4-15 (inferred); not fully specified (N-terminus); also: Gd chelated by DTPA) [SEQ ID NO 196]"
  % bound: "60%"

Prompt line: Any idea what its % bound is? The binder is {Glu‑DTPA‑Gd}-GQWHCTTRFPHHYCLYG (disulfide 5-14 (inferred); not fully specified (C-terminus), N-terminal G linker) [Compound ID 1022]
Response line: 36%

Prompt line: Next up: {Glu‑DTPA‑Gd(3)}-PPQWHCTTRFPHHYCLYG-NH2 (disulfide 6-15 (inferred), N-terminal P-P linker) [Compound ID 1024]
Response line: 70%

Prompt line: Next up: {Glu‑DTPA‑Gd″}-GGDWTCVGDHKTWKCNFH-NH2 (disulfide 6-15 (inferred), N-terminal G-G linker) [Compound ID 1023]
Response line: 14%
